Experiment: yeast display, Sf9 membrane polyspecificity reagent, FACS + sequencing; frameworks hold sequencing errors

sequence text: QVQLVESGGGLVQAGGSLRLSCAASGSTFYDNAKGWYRQAPGKERELVAGITESGGSTYYADSVKGRFTISRDNAKNTVYLQMNSLKPEDTAVYYCAAVYTYIPYLTYYYWGQGTQVTVSS
polyreactivity (PSR sort gate): low polyreactivity
//
sequence text: QVQLVESGGGLVQAGGSLRLSCAASGGIFRWYAMGWYRQAPGKEREFVAVITTDGGSTYYADSVKGRFTISRDNAKNTVYLQMNSLKPEDTAVYYCAADYTLIYDYWGQGTQVTVSS
polyreactivity (PSR sort gate): low polyreactivity
//
sequence text: QVQLVESGGGLVQAGGSLRLSCAASGRIFSLYTMGWYRQAPGKERELVATINRSSVSTRYADSVKGRFTISRDNAKNTGYLQMNSLKPEDTAVYYCAAQRSTRYPLYYWGQGTQVTVSS
polyreactivity (PSR sort gate): high polyreactivity
//
sequence text: QVQLEESGGGLVQAGGSLRLSCAASGSTFYRYAMGCYRQAPGKERELVAAMSRGGGRTNYADSVKGRFTISRDNAKNTVYLQMNSLKPEDTAVYYGAAYTYSFRANHDYWGQGTQVTVSS
polyreactivity (PSR sort gate): high polyreactivity
//
sequence text: QVQRVESGGGLVQAGGSLRLSCAASGSTFWFNAMGWYRQAPGKERELVAAITYRGASTNYADSVKGRFTISRDNAKNTVYLQMNSLKPEDTAVYYCATRPTWRPVPDSDVSTYGYWGQGTQVTVSS
polyreactivity (PSR sort gate): low polyreactivity

----------
Assay: yeast display, Sf9 membrane polyspecificity reagent, FACS + sequencing; frameworks hold sequencing errors

sequence text: QVQLVESGGGLVQAGGSLRLSCAASGGTIDRYAMGWYRQAPGKERELVAAITKSGDRTYYADSVKGRFTISRDNAKNTVYLQMNSLKPEDTAVYYCAAAYSGLRRQNGFNYWGQGTQVTVSS
polyreactivity (PSR sort gate): high polyreactivity

sequence text: QVQLEESGGGLVQAGGSLRLSCAASGSTFTGYAMGWYRQAPGKERELVAAIPISGGRTFYADSVKGRFTISRDNAKNTVYLQMNSLKPEDTAFYYCAAYLRGSKYSFDYWGQGTQVTVSS
polyreactivity (PSR sort gate): high polyreactivity

sequence text: QVQLVESGGGLVQAGGSLRLSCAASGRTLDSNAMGWYRQAPGKERDLVATISKRGGNTYYADSVKGRFTISRDNAKNTVYLQMNSLKPEDTAVYYCAKDVPPEYPTSSYDYWGQGTQVTVSS
polyreactivity (PSR sort gate): low polyreactivity

sequence text: QDQLVESGGGLVQAGGSLRLSCAASGRTFAYNAMVWYRQAPGKERELVADITSGGSTYYADSVKGRFTISRDNPKNTVNLQMNSLKPEDTAVYDCADVRQGSFTTMDYWGQGTQVTVSS
polyreactivity (PSR sort gate): high polyreactivity

sequence text: QVQLVESGGGLVQAGGSLRLSCAASGRIFYGYAMGWYRQAPAKERELVAAISWRGGRTYYADSVKGRFTISRDNAKNTVYLQMNSLKPEDTAVYFCNKDFPPQGQLRNMYYWGQGTLVTVSS
polyreactivity (PSR sort gate): high polyreactivity

sequence text: QVQLVESAGGLVQAGGSLRLSCAASGLTFTGNAIGWYRQAPGKERQCVAAIRWSAGSTYYADSVKGRVTISRDNAKNTVYLQMNSLKPEDTAVYYCNAALNVSGHYPNDYWGQGTQVTVSS
polyreactivity (PSR sort gate): low polyreactivity

sequence text: QVQLVESGGGLVQAGGSLRLSCAASGRTFVYYAMGWYRQAPGKERELVAAITSGGGTNYADSVKGRFTISRDNAKNSVYLQMNSLKPEDTAVYYCNADPRWYHFEYGYWGQGTQVTVSS
polyreactivity (PSR sort gate): high polyreactivity

sequence text: QVQLVETGGGLVQAGGSLRLRCAASGSIFGGYAMGWYRQAPGKERELVAAISSGGSTYYADSVKGRFTISRDNAKNTVYLQMNSLKPEDTAVYYCATSTYAYRRNSYYYTRPRFGYWGQGTQVTVSS
polyreactivity (PSR sort gate): high polyreactivity

sequence text: QVQLVESGGGLVQAGGSLRLSCAASRNNYPYYAMGWSRQEPGKERELVAAISGSGERTYYADSVKGRFTISRDNAKNTVFLQMNSLKPEDTAVYYCAAYRRYYGWYEYWGQGTLVTVSS
polyreactivity (PSR sort gate): high polyreactivity

sequence text: QVQLVESGGGLVQAGGSLRLSCAASGGTFYRYAMGWYRQAPGKERELVAAITSGSSTYYADSVKGRFTISRDNAKNTVYLQMNSLKPEDTAVYYCAAARYSRLSRTRPGKYGYWGQGTQVTVSS
polyreactivity (PSR sort gate): low polyreactivity

sequence text: QVQLQESGGGLVQAGGSLGCAASGNISTRSEMGWYRQAPGNEREFVATINSGGLTNYADSVKGRFTISRDNAKNTVNLRMNSLKPEDTAVYYRAVYGYFSDPYDYWGQGTQVTVSS
polyreactivity (PSR sort gate): low polyreactivity

sequence text: QVQLVESGGGLVQAGGSLRLSCAASGRTFYLNAMGWYRQAPGKERQLVAVISYRGDSTYADSVKGRFTISRDNAKNTVYLQMNSLKPEDTAVYYCAADLTRYHYRYLVTHWWYDYWGQGTQVTVSS
polyreactivity (PSR sort gate): low polyreactivity

sequence text: QVQLVESGGGLVQAGGSLRLSCAASGRTFRYYAMGWYRQAPGKERELVAAITVTVTSTFYADSVKGRFTISRDNAKNTVYLQMNSLKPEDTAVYYCAKVDRQYPGQYYYWGQGTQVTVSS
polyreactivity (PSR sort gate): low polyreactivity

sequence text: QVQLVESGGGLVQAGGSLRLSCAASGSIFPSYAMGWYRQAPGQERELVATIGRGGTTNYADSVKGRFTISRDNAKNTVYLQMNSLKPEDTAVYYCNAERIWRYKYGYDYWGQGTQVNVSS
polyreactivity (PSR sort gate): high polyreactivity

sequence text: QFQLAESGGGLVQAGGSLRLSCAASGFTFRDYAMGWSRQATGKERELVATISWRGGSTYYADSVKGRFTISRDNAKNTVYLQMNSLKPEDTAVYYCAKRPYQRSVPYGKYDYWGQGTQVTVSS
polyreactivity (PSR sort gate): low polyreactivity

sequence text: QVQLVESGGGLVQAGGSIRLIWAASGSTVPSYTMGWYRQAPGKERELVAAISGSGGSTYYADSVKGRFTISRDNAKNTVYLQMNSLKPEDTAVYSCAADYRLQLSYAFGDDYWGQGPQVTVSS
polyreactivity (PSR sort gate): low polyreactivity

sequence text: QVQLVESGGGLVQAGGSLRLSCAASGIIFSSNAMGWYRQAPGKERELVAAISRSGGSTYYADSVKARFTISRDNAKKTVYLQMNSLKPEDTAVYDCAAVYRRGHEYDYWRQGTQVTVSS
polyreactivity (PSR sort gate): high polyreactivity

sequence text: QVQLVESGGGLVQAGGSLRLSCAASGSIFKRNAMGWYRQAPGKERQLVASISWSGSRTYYADSVKGRFTISRDNAKNTVYLQMISLKPEDTAVYYCARRIYGGHPSQSTQGDFYYWGQGTQVTVSS
polyreactivity (PSR sort gate): high polyreactivity

sequence text: QVQLVESGGGLVQAGGSLRLSCAASGSIFPDYAMGGYRQAPGKERELVAAITWSGGNTYYADSVKGRFTISRDNAKNTVYLQMNSLKPEDTAVYYCAADISLHWYYYRRYNYWGQGTQVTVSS
polyreactivity (PSR sort gate): low polyreactivity

sequence text: QVQLVESGGGLVQAGGSLRLSCAASGRTLYTNAMGWYRQPPGKEREFVASISGSGGSTYYADSVKGRFTISRDNAKNTVDLQMNRLKQEDTAVYYCAADPAQTVEFGKYDYWGQGTQVTVSS
polyreactivity (PSR sort gate): low polyreactivity

sequence text: QVQLVESGVGLLQAGGSLRLSCAASGFIIVPYAMGWYIQAPGKERELVATITWRGDSTYYADSVKGRFTISRDNAKNTVYLQMNSLKPEDTAVYYCAKRVVRGKVDYWGQGTQVTVSS
polyreactivity (PSR sort gate): low polyreactivity

----------
Assay: yeast display, Sf9 membrane polyspecificity reagent, FACS + sequencing; frameworks hold sequencing errors

sequence text: QDQLVESRGGLVQAGGSLRLSCAASGIIFGYYAMGWYRQAPGKERELVAAISRRGGSTYYADSVKGRFTISRDNAKNTVYLQMNSLKPEDTAVYYCAAVELRLSTPDMESWGQGTQVTVSS
polyreactivity (PSR sort gate): high polyreactivity
//
sequence text: QVQLVESGGGIVQAGCSLRLSCAASGFTFERYTMGWYRQAPGKERELVATISRRSGRTSYADSVKGRFTISRDNAKNTVYLQMNSLNPEDTAVYYCAVDDAYPDRYDYWGQGTQVTVSS
polyreactivity (PSR sort gate): high polyreactivity

----------
Experiment: yeast display, Sf9 membrane polyspecificity reagent, FACS + sequencing; frameworks hold sequencing errors

sequence text: QVQLVESGGGLVQAGASLRLSCAASGSTFLQNAMGWYRQAPGKVRELVAAITRSGGSTNYADSVKGRFKISRDNAKNTVYLQKNSLKPEDTAVYYCPAGGRRYDDDYWGQGTQVTVSS
polyreactivity (PSR sort gate): high polyreactivity
--
sequence text: QVQLVESGGGLVQAGGSLRLSCAASGLTFSYYAMGWSRQAPGKERELVAAISRGGRTNYADSVKGRFTISRDNAKNTVYLQMNSLKPEDTAVYYCAARFVVQGHSSPYDYWGQGTQVTVSS
polyreactivity (PSR sort gate): high polyreactivity
--
sequence text: QVQLVESGGGLVQAGGSLRLSCAASGNTFRYYAMGWYRQAPGKERELVATITSGGRTYYADSVKGRFTISRDNAKNTVYLQMNSLKPEDTAVYYCAAVGLDYFVGEYDYWGQGTQLTVSS
polyreactivity (PSR sort gate): low polyreactivity
--
sequence text: QVQLVESGGGLVQAGGSLRLSCAASGRIFDYYAMGWYRQAPGKERELVARITSGGTTNYADSVKGRFTISRDNAKNTVYLQMNSLKPEDTAVYYCNAQDYSDPLQMDYWGQGTQVTVSS
polyreactivity (PSR sort gate): low polyreactivity
--
sequence text: QVQLVESGGGLFQAGVSLRISCAASGFIFDRNAMGWYRQAPGKERELVAVINSGGSTYYADSVKGRFTISRDNAKNTVYLQMNCLKPEDTAVYYCAAVRSRYGREYYYWGQGTQVTVSS
polyreactivity (PSR sort gate): high polyreactivity
--
sequence text: QVQLVESGGGLVQAGGSLRISCAASGSTFFRNAMGRYRQAPGKERELVAAITWSGGSTYYADSVKGRFTISRDNAKNTVYLQMNSLKPEDTAVYYFAAGLSYWTPHYYPFDYWGQGTQVTVSS
polyreactivity (PSR sort gate): low polyreactivity
--
sequence text: QVQLVESGGGLVQAGGSLRLSCAASGIISSVYAMGWYRPAPGKERELVAAISGSGGSTYYADSVKGRFTISRDNAKNTVYLQMNSLKAEDTAVYYCAKGYQYQGNSYGYWGQGTQVTVSS
polyreactivity (PSR sort gate): low polyreactivity
--
sequence text: QVQLVESGGGLVQAGGSLRLSCAASGSTFGWYAMGWYRQAPGKERELVAAINSSGDRTYYADSVKGRFTISRDNAKINVYLQMNSLKPEDTAVYYCAATYWARNWRYDYWGQGTQVTVSS
polyreactivity (PSR sort gate): high polyreactivity
--
sequence text: QVQLVESGGGLVQAGGSLRLSCAASGSIFVPYTMGWYRQAPGKERELVASISYSGGTTYYADSVKGRFTISRDNAKNTVYLQMNSLKPEDTAVYYCAAQTLDGYDYWGQGTQVTVSS
polyreactivity (PSR sort gate): low polyreactivity
--
sequence text: QDQLVESGGGLVQAGGSLRISIAASARTFRDYVMGWSRQAPGKERELVAAISTRGASTYYADSVKGRFTISRDNAKNTVYLQMNTLKPEDTADYYCAARSTRRGNEYDYWGQGTQVTVSS
polyreactivity (PSR sort gate): high polyreactivity
--
sequence text: QVQHVESGGGLVQAGGSLRLSCAASGIIFFKNAMGWYRQAPGKERELVAAISSTDTRTYYADSVKGRFTISRDNAKNTVYLQMNSLKPEDTAVYYCAASRRGGGLDYWGQGTQVTVSS
polyreactivity (PSR sort gate): high polyreactivity

Data credit: the nanobody polyreactivity screen of Harvey et al. (2022)
